Origin of the recorded values: patent US6355799B1

- Tested on: upland rice (Oryza sp., var. Tebonnet, RICE)
- measurement_notes: Pre-emerge test, crop safety
- Assay type: in vivo
- particulars: pre-emerge, 250 g ai/ha, 14 days after application, scale 0-100
Each record is given met if its reported phytotoxicity rating RICE (crop damage) is strictly below 50. Records at or above 50 are given not met.

>>> class_name("COc1c(Cl)cc(F)c(-n2c(=O)cc(C(F)(F)F)n(C)c2=O)c1NC(=O)c1c(C)cccc1C")
"met"

For the next question, use this compound.
Please let me know if COc1c(Cl)cc(F)c(-n2c(=O)cc(C(F)(F)F)n(C)c2=O)c1NC(=O)COc1ccc(Cl)cc1 shows phytotoxicity rating RICE (crop damage) below 50.
met

* * *

Catalogue of molecules with associated Pre-emerge Herbicidal Activity RICE
- Test system: upland rice (Oryza sp., var. Tebonnet, RICE)
- measurement_notes: Pre-emerge test, crop safety
- Type: in vivo
- particulars: crop damage, pre-emerge, rate 250 g ai/ha, phytotoxicity rating 0-100 at 14 days after application

Name the reported Pre-emerge Herbicidal Activity RICE value associated with the molecule Cc1ccc(COC(=O)Nc2c(C)c(Cl)cc(F)c2-n2c(=O)cc(C(F)(F)F)n(C)c2=O)cc1
70

State the recorded Pre-emerge Herbicidal Activity RICE for this entry: Cc1c(Cl)cc(F)c(-n2c(=O)cc(C(F)(F)F)n(C)c2=O)c1NC(=O)OCc1ccc(Cl)cc1
50

Any idea what its Pre-emerge Herbicidal Activity RICE is? The molecule is Cc1c(Cl)cc(F)c(-n2c(=O)cc(C(F)(F)F)n(C)c2=O)c1NC(=O)SCc1ccccc1
65

Need Pre-emerge Herbicidal Activity RICE, item C#CCOc1c(Cl)cc(Cl)c(-n2nnn(CCCF)c2=O)c1N
0

What does the data say about its Pre-emerge Herbicidal Activity RICE? Entry: Cc1nn(-c2c(Cl)cc(Cl)cc2NC(=O)c2ccc(F)cc2F)c(=O)n1C(F)F
10

So what does the record say about Pre-emerge Herbicidal Activity RICE for COc1ccc(COC(=O)Nc2c(C)c(Cl)cc(F)c2-n2c(=O)cc(C(F)(F)F)n(C)c2=O)cc1OC ?
90

Pre-emerge Herbicidal Activity RICE lookup needed for C=Cc1ccc(C(=O)Nc2c(OC)c(Cl)cc(F)c2N2C(=O)C3=C(CCCC3)C2=O)cc1 , thanks.
10

For the molecule shown here, Cc1cc(C)c(COC(=O)Nc2c(C)c(Cl)cc(F)c2-n2c(=O)cc(C(F)(F)F)n(C)c2=O)c(C)c1 , give the reported Pre-emerge Herbicidal Activity RICE.
30

* * *

Listed here: items and their measured Pre-emerge Herbicidal Activity, phytotoxicity rating (0-100), AMBEL.
- Tested on: common ragweed (Ambrosia artemisizfolia L., AMBEL)
- measurement_notes: Pre-emerge test, greenhouse herbicide activity screening
- Format: in vivo
- particulars: 63 g ai/ha; rated 14 days after application; 0 = no damage, 100 = complete death
Please respond with just the number, no unit label.

>>> obs_value("COc1c(Cl)cc(F)c(-n2c(=O)cc(C(F)(F)F)n(C)c2=O)c1NC(=O)c1ccc(CCl)cc1")
0
>>> obs_value("COc1c(Cl)cc(F)c(-n2c(=O)cc(C(F)(F)F)n(C)c2=O)c1NC(=O)c1ccc(F)cc1")
100
>>> obs_value("COc1c(Cl)cc(F)c(-n2c(=O)cc(C(F)(F)F)n(C)c2=O)c1N(C(=O)c1ccc(C(F)(F)F)cc1)C(=O)c1ccc(C(F)(F)F)cc1")
100

# evaluate next
Would you mind telling me what Pre-emerge Herbicidal Activity, phytotoxicity rating (0-100), AMBEL value was observed for COc1c(Cl)cc(F)c(-n2c(=O)cc(C(F)(F)F)n(C)c2=O)c1NC(=O)c1cc([N+](=O)[O-])cc([N+](=O)[O-])c1 ?
0
